- Test system: trigeminal neurons
- measurement.notes: Whole-cell patch-clamp recordings of dissociated trigeminal neurons
- Assay type: cell-based, rat
- condition.info: Rattus norvegicus, Neuron; room temperature, Vhold=-60 mV, currents normalized to 1 mM menthol; read-out: half-maximal effective concentration (EC50) of evoked inward currents
observation.type: EC50
Quick note: number first, unit second.

Input line: Please look up its EC50: CC1CCC(C(C)C)C(O)C1 (stereo not shown)
Output line: 80 µM

----------
- tested.system: CMR1 (Rattus norvegicus, UniProt Q8R455, N449H)
- Sequence (Q8R455 whole entry N449H): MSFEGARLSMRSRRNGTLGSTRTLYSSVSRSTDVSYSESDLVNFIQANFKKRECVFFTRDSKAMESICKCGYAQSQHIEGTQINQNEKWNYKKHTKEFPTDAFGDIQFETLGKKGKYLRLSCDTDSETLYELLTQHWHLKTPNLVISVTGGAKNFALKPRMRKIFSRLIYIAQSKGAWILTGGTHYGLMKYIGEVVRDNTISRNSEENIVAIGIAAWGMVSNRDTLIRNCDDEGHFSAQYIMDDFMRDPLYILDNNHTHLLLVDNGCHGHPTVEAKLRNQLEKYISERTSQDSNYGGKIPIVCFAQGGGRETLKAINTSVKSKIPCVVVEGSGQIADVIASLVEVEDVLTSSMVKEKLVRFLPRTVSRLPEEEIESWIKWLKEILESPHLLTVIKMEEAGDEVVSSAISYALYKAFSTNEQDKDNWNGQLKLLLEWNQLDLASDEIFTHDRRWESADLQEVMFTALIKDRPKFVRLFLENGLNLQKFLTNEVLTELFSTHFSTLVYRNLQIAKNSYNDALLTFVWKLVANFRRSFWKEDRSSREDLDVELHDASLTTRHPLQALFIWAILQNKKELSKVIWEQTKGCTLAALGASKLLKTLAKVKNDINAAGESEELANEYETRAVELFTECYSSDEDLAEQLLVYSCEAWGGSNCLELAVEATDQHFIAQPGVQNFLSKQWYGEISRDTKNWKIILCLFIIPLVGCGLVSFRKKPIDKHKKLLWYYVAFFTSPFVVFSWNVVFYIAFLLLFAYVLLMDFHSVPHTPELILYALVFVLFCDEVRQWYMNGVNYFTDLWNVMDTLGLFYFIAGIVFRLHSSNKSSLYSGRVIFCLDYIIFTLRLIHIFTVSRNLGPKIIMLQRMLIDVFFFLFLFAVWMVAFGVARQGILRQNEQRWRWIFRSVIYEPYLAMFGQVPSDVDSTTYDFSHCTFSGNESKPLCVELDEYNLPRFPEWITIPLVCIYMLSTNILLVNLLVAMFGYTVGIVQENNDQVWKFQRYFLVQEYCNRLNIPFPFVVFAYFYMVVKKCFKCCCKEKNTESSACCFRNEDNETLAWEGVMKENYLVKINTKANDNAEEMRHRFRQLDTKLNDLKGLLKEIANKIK
- measurement.notes: Two-electrode voltage-clamp of Xenopus oocytes expressing the cloned cold/menthol receptor
- Assay type: cell-based
- Design: open reading frame of 3312 bp that is predicted to encode a protein of 1104 amino acids; expressed in transfected cells; host or cells: Xenopus laevis oocytes (cRNA injection)
- condition.info: room temperature, voltage clamp at -60 mV, normalized to 500 μM menthol; read-out: EC50 of evoked membrane currents
Reported pEC50 values follow for various compounds
# pEC50: negative log10 of molar concentration; output just the value

{"columns": ["compound", "pEC50"],
 "data": [
  ["CC1CCC(C(C)C)C(O)C1 (centres unmarked) [menthol]", 4.18]
]}

// next entry
Input line: Form field: pEC50 recorded for O=C1NC(c2cccc([N+](=O)[O-])c2)=CCN1c1ccccc1O [icilin] with CMR1 (Rattus norvegicus, UniProt Q8R455, N449H) (enter value)
Output line: 6.44

----------
- tested.system: CMR1 (Rattus norvegicus, UniProt Q8R455, N449H)
- measurement.notes: Two-electrode voltage-clamp of Xenopus oocytes expressing the cloned cold/menthol receptor
- Format: cell-based
- Parameters: open reading frame of 3312 bp that is predicted to encode a protein of 1104 amino acids; expressed in transfected cells; host or cells: Xenopus laevis oocytes (cRNA injection)
- condition.info: menthone, camphor, cyclohexanol applied near limits of solubility (>500 μM)
observation.type: electrophysiological response of receptor-expressing oocytes

{"columns": ["compound", "test.value"],
 "data": [
  ["CC1CCC(C(C)C)C(O)C1 (stereo not shown)", "Robust responses"],
  ["O=C1NC(c2cccc([N+](=O)[O-])c2)=CCN1c1ccccc1O", "Robust responses"]
]}

----------
- tested.system: CMR1 (Rattus norvegicus, UniProt Q8R455, N449H)
- measurement.notes: Two-electrode voltage-clamp of Xenopus oocytes expressing the cloned cold/menthol receptor
- Assay type: cell-based
- Set-up: open reading frame of 3312 bp that is predicted to encode a protein of 1104 amino acids; expressed in transfected cells; host or cells: Xenopus laevis oocytes (cRNA injection)
- condition.info: room temperature, voltage clamp at -60 mV; read-out: potency (EC50) of evoked membrane currents
observation.type: EC50 (mM)
Provide the reading as a plain figure in mM.

Input line: Form field: EC50 recorded for CC12CCC(CC1)C(C)(C)O2 with CMR1 (Rattus norvegicus, UniProt Q8R455, N449H) (enter value)
Output line: 3.4
